biological target: pooled human IgG (human); experiment: cell-based or functional assay; further: test concentration or dose not given here
QUANTITY: Enzyme Activity Endpoint Assay (purified): Fab′2

Form field: reported Enzyme Activity Endpoint Assay (purified): Fab′2 of PRT-207 (enzyme) MEVVEVWPYGQNPNGKTEILSQTEDSESLQRLRDIEDFQAEKKKEGVVYTKWLDGVDVDDHDFRKIVDGNIAYYATPLLNGRGFYDINKDFNRDSDKCAAAVAANMFHYWLDRNRDNVDRFLKQNPEKHGIIELPDGQLKLSDFLNTYESDNGYRDKSKLFDFISNNFNGPVWTDKLLDNYINGYAYNYKYGRTIEDPTKNTSKINFFKEVFNEKILTNNHSIRNYNTFSDLLSEALYTGKAIGLSYGPAGLRHSLGHIISVWGADLDADGNVVAIYVTDSDDKKLTIGDERVGLKRYKVSSDDENRLRLTAYEETHNTGGQIRGIWTLDTGKQAWADYFDKTEQTGTDQAEQLEHHHHHH
0 ng/µL
